# experimental.details: qHTS for Inhibitors of Plasmodium falciparum (CP250) proliferation (AID 504320)
# measurement.setup: P. falciparum CP250 in erythrocytes, SYBR Green DNA, 72 h; series mostly up to 6.7 µM
Records with an inconclusive call do not appear. Active and inactive are the calls of the source. Calls come from the whole dose curve; as a rule, active = well fitted inhibition curve with a large enough effect; inconclusive = small, poorly fitted or top-dose-only effect, or effect the other way; inactive = flat fitted curve, though single readings scatter.
One label from this list, please: 1 for active, -1 for inactive

Q: How was C=CCN1c2ccccc2[C@]23C[C@@H](C(=O)OC)N(C(=O)COCc4ccccc4)C2=NC(C(=O)OC)=C(C(=O)OC)[C@H]13 classified in this test?
A: -1

Q: How was O=C(C=Cc1ccc2c(c1)OCO2)c1ccccc1 classified in this test?
A: -1

Q: How was C=CCN1c2ccccc2[C@]23C[C@@H](C(=O)OC)N(C(=O)c4cc(C)oc4C)C2=NC(C(=O)OC)=C(C(=O)OC)[C@H]13 classified in this test?
A: -1

Q: How was COC(=O)[C@@H](NC(=O)N1CCc2nc(-c3ccc(OC)cc3C)c3c(c2C1)CO[C@@H](c1ccccc1)C3)C(C)C classified in this test?
A: -1

Q: How was CCN1C(=O)N[C@@H](c2cccs2)C(C(=O)OC)=C1C classified in this test?
A: -1

Q: How was CCC(=O)N1C2=C(c3ccccc3[C@@H]1CC(=O)Nc1ccc3ccccc3c1)[C@@H]1C(=O)N(c3ccccc3)C(=O)[C@@H]1[C@H](C)C2 classified in this test?
A: -1

Q: How was CCCCC1=CC2=CC(=O)C(C)(OC(=O)CC)C(=O)C2=CN1CCc1ccc(Br)cc1 (stereo not drawn) classified in this test?
A: -1

Q: How was C=CCN1c2ccccc2[C@]23C[C@@H](C(=O)OC)N(S(=O)(=O)c4ccc(C#N)cc4)C2=NC(C(=O)OC)=C(C(=O)OC)[C@H]13 classified in this test?
A: -1

Q: How was CCCCC1=CC2=CC(=O)C(C)(OC(=O)CC)C(=O)C2=CN1c1ccncc1 (stereo not drawn) classified in this test?
A: -1

Q: How was COC(=O)[C@H]1[C@H](CCc2ccccc2)NC(=O)N(Cc2ccccc2)[C@@H]1C classified in this test?
A: -1

Q: How was CC#CCN1c2ccccc2[C@]23C[C@@H](C(=O)OC)N(S(=O)(=O)c4c(C)noc4C)C2=NC(C(=O)OC)=C(C(=O)OC)[C@H]13 classified in this test?
A: -1

Q: How was COC(=O)C1=C(C(=O)OC)[C@@H]2Nc3ccccc3[C@@]23C[C@@H](C(=O)OC)N(C(=O)c2ccc(Br)cc2)C3=N1 classified in this test?
A: -1

Q: How was CCCCS(=O)(=O)N1C2=NC(C(=O)OC)=C(C(=O)OC)[C@@H]3Nc4ccccc4[C@]23C[C@H]1C(=O)OC classified in this test?
A: -1

Q: How was CC#CCN1c2ccccc2[C@]23C[C@@H](C(=O)OC)N(S(=O)(=O)c4ccc([N+](=O)[O-])cc4)C2=NC(C(=O)OC)=C(C(=O)OC)[C@H]13 classified in this test?
A: -1

Q: How was CCCNC(=O)N1C2=NC(C(=O)OC)=C(C(=O)OC)[C@@H]3Nc4ccccc4[C@]23C[C@H]1C(=O)OC classified in this test?
A: -1

Q: How was COC(=O)C1=C(C(=O)OC)[C@@H]2N(C)c3ccc(OC)cc3[C@@]23C[C@@H](C(=O)OC)N(C(C)=O)C3=N1 classified in this test?
A: -1

Q: How was CCCCC1=CC2=CC(=O)C(C)(OC(=O)CC)C(=O)C2=CN1CCOC (stereo not drawn) classified in this test?
A: -1

Q: How was COC(=O)C1=C(C(=O)OC)[C@@H]2N(C)c3ccc(OC)cc3[C@@]23C[C@@H](C(=O)OC)N(S(=O)(=O)c2ccc4c(c2)OCCN4C)C3=N1 classified in this test?
A: -1

Q: How was CCN1C(=O)N[C@@H](c2cccs2)C(C(C)=O)=C1C classified in this test?
A: -1

Q: How was CCN1C(=O)N(S(=O)(=O)c2ccc(C)cc2)[C@@H](c2ccccc2)C(C(=O)OC)=C1C classified in this test?
A: -1

Q: How was COC(=O)C1=C(C(=O)OC)[C@@H]2N(Cc3ccccc3)c3ccccc3[C@@]23C[C@@H](C(=O)OC)N(S(=O)(=O)c2ccc(C(F)(F)F)cc2)C3=N1 classified in this test?
A: 1

Q: How was CCCCCCCC1=Cc2ccccc2C(C(C(C)=O)C(=O)OC)N1C(=O)OC (stereo not drawn) classified in this test?
A: -1

Q: How was C=CCOC(=O)N[C@H](C(C(=O)OC)=C(C)NCc1ccccc1)c1ccc(C)cc1 classified in this test?
A: -1

Q: How was COc1cc2c(cc1OC)[C@@H]1O[C@](CCCCN3C(=O)c4ccccc4C3=O)(C2)OC2=C1C(=O)CCC2 classified in this test?
A: -1

Q: How was CCOC(=O)NN=C1C[C@@H](O)[C@@H](O)[C@@H]2[C@H]3C(=O)N(CC)C(=O)[C@@H]3CC[C@@H]12 classified in this test?
A: -1

Q: How was C[C@@H]1CC[C@H]2C(=O)N(Cc3cccc([N+](=O)[O-])c3)C[C@H](O)CN2[C@@H]1c1ccc(Br)cc1 classified in this test?
A: -1

Q: How was CCCCC1=CC2=CC(=O)C(C)(OC(=O)CC)C(=O)C2=CN1CC(C)C (stereo not drawn) classified in this test?
A: -1

Q: How was CCOC(=O)CN1C(=O)N(CC)C(C)=C(C(=O)OC)[C@@H]1c1ccccc1 classified in this test?
A: -1

Q: How was COC/C=C/C1=CC2=CC(=O)C(C)(OC(=O)c3cnc4ccccc4n3)C(=O)C2=CN1C1CCCC1 (stereo not drawn) classified in this test?
A: -1

Q: How was CCCCC1=CC2=CC(=O)C(C)(OC(=O)CC)C(=O)C2=CN1C1CCCC1 (stereo not drawn) classified in this test?
A: -1

Q: How was C=C(C)C(=O)c1ccc2c(c1)OCO2 classified in this test?
A: -1

Q: How was CC#CCN1c2ccccc2[C@]23CCC(=O)N(CCCOC(C)C)C2=NC(C(=O)OC)=C(C(=O)OC)[C@H]13 classified in this test?
A: -1

Q: How was COC(=O)N[C@@H](c1cccc(C)c1)C(C(C)=O)C(=O)OC (stereo partly drawn) classified in this test?
A: -1

---

# System: PC15
# experimental.details: qHTS profiling for inhibitors of Plasmodium falciparum proliferation (AID 504749); note: nearly all actives have a fitted effect of over 60% in size
# measurement.setup: P. falciparum in erythrocytes, SYBR Green DNA, 72 h; series mostly up to 28.7 µM
# Protocol: NIH National Institute of Allergy and Infectious Diseases [NIAID] NIH Chemical Genomics Center [NCGC] […] Because mature erythrocytes lack DNA, only Plasmodium-derived DNA is detected. NCGC Assay Protocol Summary: The SYBR Green viability assay was adapted from a method described previously (Plouffe et al., 2008). […] The following morning, fluorescence intensity at 485(14) nm excitation and 535(25) nm emission wavelengths was measured on an EnVision (Perkin Elmer) plate reader. […]
Inconclusive results are not listed. Active and inactive are the calls of the source. Calls come from the whole dose curve; as a rule, active = well fitted inhibition curve with a large enough effect; inconclusive = small, poorly fitted or top-dose-only effect; inactive = flat fitted curve, though single readings scatter. Square brackets hold non-standard residues; d marks the D form. Peptide text beside a SMILES is read from it. Orn = NCCC[CH](N)C(=O)O
One label from this list, please: active, inactive

Q: How was CC(C)CC1NC(=O)C(CCCN)NC(=O)C(C(C)C)NC(=O)C2CCCN2C(=O)C(Cc2ccccc2)NC(=O)C(CC(C)C)NC(=O)C(CCCN)NC(=O)C(C(C)C)NC(=O)C2CCCN2C(=O)C(Cc2ccccc2)NC1=O (stereo unspecified) (cyclo(FPV[Orn]LFPV[Orn]L); configuration not given here) classified in this test?
A: active

Q: How was CC1(C)C(/C=C/C=C/C=C/C=C2\N(CCCCS(=O)(=O)O)c3ccc4ccccc4c3C2(C)C)=[N+](CCCCS(=O)(=O)[O-])c2ccc3ccccc3c21 classified in this test?
A: inactive

Q: How was CC(C)CC(NC(=O)C(COC(C)(C)C)NC(=O)C(Cc1ccc(O)cc1)NC(=O)C(CO)NC(=O)C(Cc1c[nH]c2ccccc12)NC(=O)C(Cc1cnc[nH]1)NC(=O)C1CCC(=O)N1)C(=O)NC(CCCN=C(N)N)C(=O)N1CCCC1C(=O)NNC(N)=O (stereo unspecified) classified in this test?
A: inactive

Q: How was CCOC(=O)C(CS)NCCN[C@@H](CS)C(=O)OCC (stereo partly specified) classified in this test?
A: inactive

Q: How was O=C1/C(=C\c2cccs2)CCC/C1=C/c1cccs1 classified in this test?
A: inactive

Q: How was CCC(Oc1ccccc1)C(=O)NC1C(=O)N2C1SC(C)(C)C2C(=O)O (stereo unspecified) classified in this test?
A: inactive
